- target: HLA-E (Homo sapiens, UniProt P13747)
- Sequence (P13747 22-358): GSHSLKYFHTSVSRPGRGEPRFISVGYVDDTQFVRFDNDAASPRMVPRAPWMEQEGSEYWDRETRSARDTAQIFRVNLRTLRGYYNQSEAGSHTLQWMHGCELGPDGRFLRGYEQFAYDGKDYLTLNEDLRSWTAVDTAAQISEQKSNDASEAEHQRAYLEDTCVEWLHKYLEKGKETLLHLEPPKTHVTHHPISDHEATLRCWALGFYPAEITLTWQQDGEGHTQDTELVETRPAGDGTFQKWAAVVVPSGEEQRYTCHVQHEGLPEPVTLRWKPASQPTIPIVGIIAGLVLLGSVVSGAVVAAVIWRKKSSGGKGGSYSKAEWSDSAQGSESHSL
- Sequence (P61769 21-119, further chain): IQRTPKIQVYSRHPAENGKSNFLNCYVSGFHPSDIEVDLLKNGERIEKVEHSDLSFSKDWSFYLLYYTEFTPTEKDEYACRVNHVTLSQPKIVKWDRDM
- assay summary: HLA-E surface stabilization assay with RMA-S/HLA-E cells
- Format: cell-based
- setup conditions: RMA-S/HLA-E cells incubated with 30 μM peptide, anti-HLA-E antibody
readout type: stabilization of HLA-E surface expression (peptide-HLA-E binding)

[
  {
    "seq text": "WNRLFPPLR [UBAC2275-279, reference compound]",
    "target": "HLA-E (Homo sapiens, UniProt P13747)",
    "experimental result": "no stabilizing effects"
  },
  {
    "seq text": "VMGDRSVLY [EMC1, reference compound]",
    "target": "HLA-E (Homo sapiens, UniProt P13747)",
    "experimental result": "no stabilizing effects"
  },
  {
    "seq text": "VMADKSIFY [OR5D14, reference compound]",
    "target": "HLA-E (Homo sapiens, UniProt P13747)",
    "experimental result": "no stabilizing effects"
  }
]
